Test: CARIV-A-001 Part B: cross-over IV infusion over 2 hours vs oral tablet 100 mg/kg in healthy subjects
Format: in vivo, human
Conditions: both sexes, human, plasma, iv, 8 mg/kg, IV, 8 mg/kg, N 10; read-out: HL (Half-life), Median (converted)
property-label: half-life (h)

1. NC(=O)N[C@@H](CCC(=O)O)C(=O)O [carglumic acid, N-carbamoyl-L-glutamic acid]	28.8

----------
Test: Pharmacokinetics in healthy subjects after oral administration (radiolabeled and non-radiolabeled)
Format: in vivo, human
Conditions: human, plasma, po; read-out: Tmax, median
property-label: Tmax (h)

1. NC(=O)N[C@@H](CCC(=O)O)C(=O)O	3

----------
Assay: CARIV-A-001 Part B: cross-over IV infusion over 2 hours vs oral tablet 100 mg/kg in healthy subjects
Assay type: in vivo, human
Conditions: both sexes, human, plasma, iv, 12 mg/kg, IV, 12 mg/kg, N 2; read-out: AUCinf, Median
property-label: AUC(0-inf) (ng·h/mL)

1. NC(=O)N[C@@H](CCC(=O)O)C(=O)O	53800

----------
Experiment: CARIV-A-001 Part A: single ascending IV doses over 20 minutes in healthy subjects
Type: in vivo, human
Conditions: both sexes, human, plasma, iv, 3.5 mg/kg, IV over 20 minutes, 3.5 mg/kg; read-out: Clearance (Cl), Median
property-label: clearance (mL/min/kg)

1. NC(=O)N[C@@H](CCC(=O)O)C(=O)O [carglumic acid, N-carbamoyl-L-glutamic acid]	5.33

----------
Assay: CARIV-A-001 Part A: single ascending IV doses over 20 minutes in healthy subjects
Assay type: in vivo, human
Settings: both sexes, human, plasma, iv, 7.5 mg/kg, IV over 20 minutes, 7.5 mg/kg; read-out: AUCinf, Range
property-label: AUC(0-inf)

1. NC(=O)N[C@@H](CCC(=O)O)C(=O)O	20200 to 29100 ng·h/mL

----------
Assay: CARIV-A-001 Part A: single ascending IV doses over 20 minutes in healthy subjects
Assay type: in vivo, human
Settings: both sexes, human, plasma, iv, 7.5 mg/kg, IV over 20 minutes, 7.5 mg/kg; read-out: Clearance (Cl), Median
property-label: clearance (mL/min/kg)

1. NC(=O)N[C@@H](CCC(=O)O)C(=O)O	5.33

----------
Assay: CARIV-A-001 Part A: single ascending IV doses over 20 minutes in healthy subjects
Type: in vivo, human
Details: both sexes, human, plasma, iv, 3.5 mg/kg, IV over 20 minutes, 3.5 mg/kg; read-out: AUC24h, Median
property-label: AUC(0-t) (ng·h/mL)

1. NC(=O)N[C@@H](CCC(=O)O)C(=O)O	9690

----------
Test: CARIV-A-001 Part B: cross-over IV infusion over 2 hours vs oral tablet 100 mg/kg in healthy subjects
Assay type: in vivo, human
Conditions: both sexes, human, plasma, oral, 100 mg/kg, OR, 100 mg/kg, N 12; read-out: Cmax, Mean
property-label: Cmax (ng/mL)

1) NC(=O)N[C@@H](CCC(=O)O)C(=O)O	3280

----------
Assay: CARIV-A-001 Part B: cross-over IV infusion over 2 hours vs oral tablet 100 mg/kg in healthy subjects
Assay type: in vivo, human
Details: both sexes, human, plasma, iv, 8 mg/kg, IV, 8 mg/kg, N 10; read-out: Cmax, Mean
Protocol: The levels of CGA in plasma and urine were analysed using a fully validated method, which included LC-MS/MS analysis. The PK data were analysed based on a non-compartmental model. […] The PK parameters were determined using SAS (version 9.3), and modelling of the PK data was performed using NONMEM (version 7.3, ICON Solutions). […] The PK analysis of Carbaglu was conducted on all subjects showing quantifiable plasma levels using standard non-compartmental approach.
property-label: Cmax (ng/mL)

1) NC(=O)N[C@@H](CCC(=O)O)C(=O)O	8610
